Tested on: ACHN renal
Assay: NCI-60 one-dose screen, 48 h
Settings: 10 µM unless noted
The panel holds about 83,000 compounds, 20% with a hit somewhere; the sample as a whole holds those more often. Active and inactive are the calls of the source. Rule for the calls: active = growth percent below 10; inactive = the rest.
A correct response names exactly one class from active, inactive

See these solved cases before continuing.
INSERT INTO results (molecule, label_class) VALUES
  ('C#CC#CC#CC#CC#CC#CC#CC#CC[C@H]1OC[C@@H](COC(=O)O[C@@H](C(=O)O[C@H]2C[C@@]3(O)[C@@H](OC(=O)c4ccccc4)[C@@H]4[C@]5(OC(C)=O)CO[C@@H]5C[C@H](O)[C@@]4(C)C(=O)[C@H](OC(C)=O)C(=C2C)C3(C)C)[C@@H](NC(=O)c2ccccc2)c2ccccc2)O1', 'inactive'),
  ('CCN=C1C=CC(=C(c2ccc(N(C)C)cc2)c2ccc(N(C)C)cc2)c2ccccc21', 'active'),
  ('O=C(Nc1cccnc1Nc1ccc(Cl)cc1)c1cn(Cc2ccc(F)cc2)nn1', 'inactive');

How was CCN(CC)CCOc1nc2c3ccc(Cl)cc3nn2c2ccccc12 classified in this test? active

How was CCCn1c(=S)sc2c1nc(C)n1c(Nc3ccccc3)nnc21 classified in this test? inactive

How was COc1ccc(OC)c(Nc2nnc(-c3ccc(Cl)cc3)o2)c1 classified in this test? inactive

How was CN1CCN(c2ccc(NC(=O)c3cncnc3Nc3ccc4c(ccn4Cc4cccc(F)c4)c3)cc2)CC1 classified in this test? inactive

How was CNC(=O)c1c(NC(=O)c2ccc(C(C)(C)C)cc2)sc2c(CN(C)C)c(O)ccc12 classified in this test? active

How was c1ccc(CCc2ccccc2-c2cc(-c3ccccc3)on2)cc1 classified in this test? inactive

How was O=C(/C=C\c1ccco1)/C=C/c1ccco1 classified in this test? inactive

* * *

Tested on: UO-31 renal
Experiment: NCI-60 one-dose screen, 48 h (100 = growth as untreated, 0 = no growth, -100 = all killed)
Conditions: 10 µM unless noted
Experimental: Growth inhibition of the UO-31 human tumor cell line is measured as a screen for anti-cancer activity. Cells are grown in 96 well plates and exposed to the test compound for 48 hours. Compounds are tested at a single concentration, which is 10^-5 M for most compounds. The reported endpoint is percent growth (GI% or GIPRCNT), where numbers from 0 - 100% represent growth inhibition, and numbers from -100% - 0 represent cell death. For example, a value of 40 represents 60% growth inhibition. […]
This is part of a sample that, as a whole, favours compounds with a hit. Of some 83,000 tested, about 20% had one in any assay.
Lab note: cut-off is 70%. Strictly less in growth is TRUE. Exactly 70% or more is FALSE.

See these solved cases before continuing.
INSERT INTO assay_data (compound, target_system, label_class) VALUES
  ('CC1(C)CCC(S(=O)(=O)c2ccc3c(c2)/C(=N\O)c2cc(S(=O)(=O)N4CCN(c5ccc(F)cc5O)CC4)ccc2-3)CC1', 'UO-31 renal', 'TRUE'),
  ('O=C1OCC2=C1C(c1cccc(C(F)(F)F)c1)c1cc3c(cc1N2CCO)OCO3 (stereo not given)', 'UO-31 renal', 'TRUE'),
  ('COc1ccc(-c2cn(-c3ccc(Cl)cc3)c(SCC(=O)c3ccc([N+](=O)[O-])cc3)n2)cc1', 'UO-31 renal', 'FALSE'),
  ('CCOc1ccc(/C=N\N=C\c2ccc(OCC)cc2)cc1', 'UO-31 renal', 'FALSE'),
  ('Cc1nc2sc(C(=O)Nc3cccc(Cl)c3)c(N)c2cc1C(O)c1ccccc1 (stereo not given)', 'UO-31 renal', 'TRUE'),
  ('COc1ccc2c(c1)c(-c1ccc(-c3cn(C)c4ccc(OC)cc34)[nH]1)cn2C', 'UO-31 renal', 'TRUE'),
  ('Cc1cc(C)c(-c2c(O)c(Br)c(-c3c(C)cc(C)c(Br)c3C)c(O)c2Br)c(C)c1Br', 'UO-31 renal', 'TRUE'),
  ('Nc1ccc([N+](=O)[O-])cc1N=C/C=C/c1ccccc1', 'UO-31 renal', 'TRUE');

I'd appreciate it if you could check whether Nc1ncnc2c1c(-c1ccc(Oc3ccccc3)cc1)nn2CC1SSCC1O (stereo not given) has growth smaller than 70%. TRUE

I'd appreciate it if you could check whether COc1ccc(C2CC(c3ccc4c(c3)OCO4)=Nc3c(N)ncnc3N2)cc1 (stereo not given) has growth smaller than 70%. FALSE

I'd appreciate it if you could check whether COc1cc(C(=O)c2c(N)ncn2-c2ccccc2)cc(OC)c1OC has growth smaller than 70%. FALSE

I'd appreciate it if you could check whether Cc1nc2sc(C(=O)Nc3ccccc3)c(N)c2cc1C(=O)/C=C/c1ccccc1 has growth smaller than 70%. TRUE

I'd appreciate it if you could check whether O=C(NCc1ccccc1O)c1cccc2ccccc12 has growth smaller than 70%. TRUE

I'd appreciate it if you could check whether COc1cc(N2C(=O)[C@H](c3ccccc3)C2c2ccc(SC)cc2)cc(OC)c1OC (stereo not given in full) has growth smaller than 70%. TRUE

* * *

Tested on: DU-145 prostate
Experiment: NCI-60 one-dose screen, 48 h (100 = growth as untreated, 0 = no growth, -100 = all killed)
Details: 10 µM unless noted
The panel holds about 83,000 compounds, 20% with a hit somewhere; the sample as a whole holds those more often.
Lab note: cut-off is 70%. Strictly less in growth is Fulfilled. Exactly 70% or more is Not fulfilled.

See these solved cases before continuing.
INSERT INTO results (compound, target_system, label_class) VALUES
  ('CCN(CC)c1ccc(/C=N/NC(=O)c2ccc(Nc3ccnc(C(F)(F)F)c3)cc2)c(O)c1', 'DU-145 prostate', 'Fulfilled'),
  ('COc1cc2c3c(c1O)-c1ccccc1[C@@H]1OC(=O)N(CC2)[C@H]31', 'DU-145 prostate', 'Not fulfilled'),
  ('CC[C@@H](c1ccc2cc(OC)ccc2c1)C(C)(C)C(=O)F', 'DU-145 prostate', 'Not fulfilled'),
  ('O=C(CCCCCCN1CC(=O)N2[C@@H](c3ccc(Cl)cc3)c3[nH]c4ccccc4c3C[C@H]2C1=O)NO', 'DU-145 prostate', 'Not fulfilled'),
  ('CN1CCN(Cc2cc(NC(=O)c3cccc(C#Cc4cccc5[nH]nc(N)c45)c3)cc(C(F)(F)F)c2)CC1', 'DU-145 prostate', 'Fulfilled'),
  ('CN(Cc1cnc2nc(N)nc(N)c2n1)c1c(Cl)cc(C(=O)NC(CCC(=O)O)C(=O)O)cc1Cl (centres undefined)', 'DU-145 prostate', 'Fulfilled'),
  ('CCN1C(=O)N(CC)C2C1NN=C1SCC(=O)N12 (centres undefined)', 'DU-145 prostate', 'Not fulfilled');

We now examine a further compound.
I'd appreciate it if you could check whether CCOC(=O)C1=C(c2ccccc2)N=c2s/c(=C/c3ccc(Br)cc3)c(=O)n2C1c1ccc(O)cc1 (centres undefined) has growth smaller than 70%. Not fulfilled

* * *

Test system: OVCAR-4 ovarian
Test: NCI-60 one-dose screen, 48 h
Conditions: 10 µM unless noted
The panel holds about 83,000 compounds, 20% with a hit somewhere; the sample as a whole holds those more often. Calls of active or inactive are those of the source. The calls were made as follows: active = growth percent below 10; inactive = the rest.
A correct response names exactly one class from y = active, n = inactive

See these solved cases before continuing.
INSERT INTO results (compound, target_system, label_class) VALUES
  ('Cc1cccc(NC(=O)CSc2nc3ccc([N+](=O)[O-])cc3[nH]2)c1', 'OVCAR-4 ovarian', 'n'),
  ('COc1ccc(C/C(C)=C(/c2ccc(OCCN3CCCCCC3)cc2)c2ccc(OC(=O)NCc3ccccc3)cc2)cc1', 'OVCAR-4 ovarian', 'n'),
  ('CC[C@@H](c1ccc2cc(OC)ccc2c1)C(C)(C)C(=O)F', 'OVCAR-4 ovarian', 'n'),
  ('Cc1ccccc1CNc1c2ccccc2nc2ccccc12', 'OVCAR-4 ovarian', 'n'),
  ('CCOC(=O)c1ccc2c(c1)c1c(C)c3ccncc3c(C)c1n2C', 'OVCAR-4 ovarian', 'y'),
  ('CS(=O)(=O)Nc1cc(-c2ccc3ncnc(Nc4ccc5c(cnn5Cc5cccnc5)c4)c3c2)cnc1Cl', 'OVCAR-4 ovarian', 'n'),
  ('O=C(O)CCCc1cnc2c3sccc3nc(SCc3c(Cl)cccc3Cl)n12', 'OVCAR-4 ovarian', 'n'),
  ('Cc1c(Cl)cccc1C(=O)Nc1nc2c(s1)CN(C(=O)Nc1cccc(C(F)(F)F)c1)CC2', 'OVCAR-4 ovarian', 'n'),
  ('COc1cc2cc(Oc3ccc(NC(=O)Nc4ccccc4)cc3)c(C)nc2cc1OCCN1CCCCC1', 'OVCAR-4 ovarian', 'n'),
  ('COc1cc2cc(NCc3ccc(OC(F)F)cc3)nc(C)c2cc1OC', 'OVCAR-4 ovarian', 'n');

How was CC12CCC(/C(=C/NNc3ccc([N+](=O)[O-])cc3[N+](=O)[O-])C1=O)C2(C)C (stereo not drawn) classified in this test? n

How was O=C(/C=C/c1cccc(Cl)c1)c1cccc(OCCCCOc2cccc(C(=O)/C=C/c3cccc(Cl)c3)c2)c1 classified in this test? n

How was COc1ccc(Nc2ncccc2NC(=O)c2cn(Cc3cccc(Oc4ccccc4)c3)nn2)cc1OC classified in this test? n

How was Cn1c(O)c(C(/C=C/c2ccccc2)=Nc2ccccc2N)c(=O)n(C)c1=O classified in this test? n

How was COc1ccc(-c2ccc(=O)oc2C#Cc2cc(OC)c(OC)c(OC)c2)cc1O classified in this test? n

Each recorded value in this set is attributed to PubChem BioAssay (NCI).
